Reference source for all entries: patent US10543223B2

- ASSAY DETAILS: Plasma concentrations and pharmacokinetics after IV and PO administration to rats
- Type: in vivo, Sprague Dawley rats
- ASSAY SETUP: male, Sprague Dawley, rat, plasma, po, 10 mg/kg, PO 10 mg/kg, 0.5 h, individual rats PO4-PO6; read-out: Plasma concentration
- Protocol: Plasma and faeces concentrations after administration of Compound 1b and for compound 13 of WO 2014/016361 at 1 mg/kg by intravenous route and 10 mg/kg by oral route to Sprague Dawley rats […] Concentrations of the samples are calculated directly from chromatograms after automatic integration by Analyst® 1.5.1 and expressed as ng/mL. […] [formula] “BLQ” stands for “Below the Limit of Quantification” (5 ng/mL for plasma). […]
MEASUREMENT LABEL: concentration at 0.5 h
Give the figure together with its unit, number first.

Cc1nc(-c2cnccn2)sc1C(=O)c1cnc(N[C@H]2O[C@H](CO)[C@@H](O)[C@H](O)[C@@H]2O)s1
5.5 ng/mL

Note: attention shifts to another entry.
Q) For the compound Cc1nc(-c2cnccn2)sc1C(=O)c1cnc(C[C@H]2O[C@H](CO)[C@@H](O)[C@H](O)[C@@H]2O)s1 , what concentration at 0.5 h is on record?
A) 6.7 ng/mL

---

- ASSAY DETAILS: Plasma concentrations and pharmacokinetics after IV and PO administration to rats
- Format: in vivo, Sprague Dawley rats
- ASSAY SETUP: male, Sprague Dawley, rat, plasma, iv, 1 mg/kg, IV 1 mg/kg, 2 h, mean of 3 rats (BLQ = 0); read-out: Plasma concentration, mean
MEASUREMENT LABEL: concentration at 2 h (ng/mL)
Answer in ng/mL, number only, no unit symbol.

Cc1nc(-c2cnccn2)sc1C(=O)c1cnc(C[C@H]2O[C@H](CO)[C@@H](O)[C@H](O)[C@@H]2O)s1
2.6

Note: attention shifts to another entry.
Q) For the compound Cc1nc(-c2cnccn2)sc1C(=O)c1cnc(N[C@H]2O[C@H](CO)[C@@H](O)[C@H](O)[C@@H]2O)s1 , what concentration at 2 h is on record?
A) 1.6

---

- ASSAY DETAILS: Plasma concentrations and pharmacokinetics after IV and PO administration to rats
- Assay type: in vivo, Sprague Dawley rats
- ASSAY SETUP: male, Sprague Dawley, rat, plasma; IV 1 mg/kg, DMSO, based on mean data
MEASUREMENT LABEL: Cmax (ng/mL)
Answer in ng/mL, number only, no unit symbol.

Cc1nc(-c2cnccn2)sc1C(=O)c1cnc(N[C@H]2O[C@H](CO)[C@@H](O)[C@H](O)[C@@H]2O)s1 [13 of WO 2014/016361]
1340

Note: attention shifts to another entry.
Q) For the compound Cc1nc(-c2cnccn2)sc1C(=O)c1cnc(C[C@H]2O[C@H](CO)[C@@H](O)[C@H](O)[C@@H]2O)s1 [Compound 1b] , what Cmax is on record?
A) 651

---

- ASSAY DETAILS: Plasma concentrations and pharmacokinetics after IV and PO administration to rats
- Format: in vivo, Sprague Dawley rats
- ASSAY SETUP: male, Sprague Dawley, rat, plasma, po, 10 mg/kg, PO 10 mg/kg, 2 h, individual rats PO4-PO6; read-out: Plasma concentration
MEASUREMENT LABEL: concentration at 2 h (ng/mL)
Answer in ng/mL, number only, no unit symbol.

Cc1nc(-c2cnccn2)sc1C(=O)c1cnc(N[C@H]2O[C@H](CO)[C@@H](O)[C@H](O)[C@@H]2O)s1 [13 of WO 2014/016361]
1.9

Q) For the compound Cc1nc(-c2cnccn2)sc1C(=O)c1cnc(C[C@H]2O[C@H](CO)[C@@H](O)[C@H](O)[C@@H]2O)s1 [Compound 1b] , what concentration at 2 h is on record?
A) 6

---

Each record here notes measured concentration at 0.083 h.
- ASSAY DETAILS: Plasma concentrations and pharmacokinetics after IV and PO administration to rats
- Format: in vivo, Sprague Dawley rats
- ASSAY SETUP: male, Sprague Dawley, rat, plasma, iv, 1 mg/kg, IV 1 mg/kg, 0.083 h, individual rats IV1-IV3; read-out: Plasma concentration
Answer in ng/mL, number only, no unit symbol.

Cc1nc(-c2cnccn2)sc1C(=O)c1cnc(N[C@H]2O[C@H](CO)[C@@H](O)[C@H](O)[C@@H]2O)s1 [13 of WO 2014/016361]
1130

Q) For the compound Cc1nc(-c2cnccn2)sc1C(=O)c1cnc(C[C@H]2O[C@H](CO)[C@@H](O)[C@H](O)[C@@H]2O)s1 [Compound 1b] , what concentration at 0.083 h is on record?
A) 573

---

- ASSAY DETAILS: Plasma concentrations and pharmacokinetics after IV and PO administration to rats
- Type: in vivo, Sprague Dawley rats
- ASSAY SETUP: male, Sprague Dawley, rat, plasma; IV 1 mg/kg, DMSO, based on mean data
MEASUREMENT LABEL: Tmax (min)
Answer in min, number only, no unit symbol.

Cc1nc(-c2cnccn2)sc1C(=O)c1cnc(C[C@H]2O[C@H](CO)[C@@H](O)[C@H](O)[C@@H]2O)s1
4.8

Note: attention shifts to another entry.
Q) For the molecule Cc1nc(-c2cnccn2)sc1C(=O)c1cnc(N[C@H]2O[C@H](CO)[C@@H](O)[C@H](O)[C@@H]2O)s1 , what Tmax is on record?
A) 4.8

---

- ASSAY DETAILS: Plasma concentrations and pharmacokinetics after IV and PO administration to rats
- Type: in vivo, Sprague Dawley rats
- ASSAY SETUP: male, Sprague Dawley, rat, plasma, iv, 1 mg/kg, IV 1 mg/kg, 6 h, mean of 3 rats (BLQ = 0); read-out: Plasma concentration, mean
MEASUREMENT LABEL: concentration at 6 h (ng/mL)
Answer in ng/mL, number only, no unit symbol.

Cc1nc(-c2cnccn2)sc1C(=O)c1cnc(C[C@H]2O[C@H](CO)[C@@H](O)[C@H](O)[C@@H]2O)s1
0

Q) For the compound Cc1nc(-c2cnccn2)sc1C(=O)c1cnc(N[C@H]2O[C@H](CO)[C@@H](O)[C@H](O)[C@@H]2O)s1 , what concentration at 6 h is on record?
A) 0

---

Each record here notes measured concentration at 0.5 h.
- ASSAY DETAILS: Plasma concentrations and pharmacokinetics after IV and PO administration to rats
- Type: in vivo, Sprague Dawley rats
- ASSAY SETUP: male, Sprague Dawley, rat, plasma, iv, 1 mg/kg, IV 1 mg/kg, 0.5 h, individual rats IV1-IV3; read-out: Plasma concentration
- Experimental: Plasma and faeces concentrations after administration of Compound 1b and for compound 13 of WO 2014/016361 at 1 mg/kg by intravenous route and 10 mg/kg by oral route to Sprague Dawley rats […] Concentrations of the samples are calculated directly from chromatograms after automatic integration by Analyst® 1.5.1 and expressed as ng/mL. […] [formula] “BLQ” stands for “Below the Limit of Quantification” (5 ng/mL for plasma). […]
Answer in ng/mL, number only, no unit symbol.

Cc1nc(-c2cnccn2)sc1C(=O)c1cnc(N[C@H]2O[C@H](CO)[C@@H](O)[C@H](O)[C@@H]2O)s1 [13 of WO 2014/016361]
56.1

Note: attention shifts to another entry.
Q) For the compound Cc1nc(-c2cnccn2)sc1C(=O)c1cnc(C[C@H]2O[C@H](CO)[C@@H](O)[C@H](O)[C@@H]2O)s1 [Compound 1b] , what concentration at 0.5 h is on record?
A) 59.6

---

Each record here notes measured concentration at 2 h.
- ASSAY DETAILS: Plasma concentrations and pharmacokinetics after IV and PO administration to rats
- Type: in vivo, Sprague Dawley rats
- ASSAY SETUP: male, Sprague Dawley, rat, plasma, po, 10 mg/kg, PO 10 mg/kg, 2 h, mean of 3 rats (BLQ = 0); read-out: Plasma concentration, mean
Answer in ng/mL, number only, no unit symbol.

Cc1nc(-c2cnccn2)sc1C(=O)c1cnc(C[C@H]2O[C@H](CO)[C@@H](O)[C@H](O)[C@@H]2O)s1
3.7

Note: attention shifts to another entry.
Q) For the compound Cc1nc(-c2cnccn2)sc1C(=O)c1cnc(N[C@H]2O[C@H](CO)[C@@H](O)[C@H](O)[C@@H]2O)s1 , what concentration at 2 h is on record?
A) 2
